Target: FP receptor (Homo sapiens (Human))
Sequence (P43088 whole entry): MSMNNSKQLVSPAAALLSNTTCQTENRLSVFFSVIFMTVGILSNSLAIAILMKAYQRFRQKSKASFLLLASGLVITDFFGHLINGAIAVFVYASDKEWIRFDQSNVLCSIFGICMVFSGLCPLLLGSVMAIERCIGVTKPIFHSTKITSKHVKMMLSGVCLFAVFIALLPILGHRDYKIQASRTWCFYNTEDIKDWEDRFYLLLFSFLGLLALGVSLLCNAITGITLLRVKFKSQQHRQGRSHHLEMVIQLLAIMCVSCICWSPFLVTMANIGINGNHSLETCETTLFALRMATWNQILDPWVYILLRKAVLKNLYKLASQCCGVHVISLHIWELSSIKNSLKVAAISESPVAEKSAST
Assay: In vitro test of inhibition of human FP receptor activity (PGF2α-induced calcium flux in FP-expressing CHEM1 cells)
Conditions: PGF2α-induced (2 nM) calcium flux in FP-expressing CHEM1 cells; some as mean values from multiple determinations
Description: Table 1 below lists the IC50 values from this assay for individual working examples of the invention (some as mean values from multiple independent individual determinations): […]
We begin with a simple list: items and their reported pIC50.
// pIC50 here means minus log10 of the molar concentration (mol/L)

# example entries with known answers
{"compound": "Cc1c(-c2ccccc2)nc2ccc(Br)cc2c1C(=O)NCC(CCC(=O)O)c1ccccc1C(F)(F)F (single isomer, unassigned; (+)) [Example 205]", "pIC50": 7.66}
{"compound": "Cc1c(-c2ccccc2)nc2ccc(Br)cc2c1C(=O)NCC(OCC(=O)O)c1ccccc1Cl (single isomer, unassigned; (-)) [Example 193]", "pIC50": 6.82}

Give the reported value of pIC50 for this record: Cc1ccc(F)cc1C(CCC(=O)O)CNC(=O)c1c(C)c(-c2ccccc2)nc2ccc(Br)cc12 (racemic) [Example 206]
7.89

Give the reported value of pIC50 for this record: COc1cccnc1C(CNC(=O)c1c(C)c(-c2ccccc2)nc2ccc(Br)cc12)CC(=O)O (single isomer, unassigned; (-)) [Example 109]
7.12

Give the reported value of pIC50 for this record: CCOc1ccccc1C(CNC(=O)c1c(C)c(-c2ccccc2)nc2ccc(Br)cc12)CC(=O)O (single isomer, unassigned; (-)) [Example 130]
6.49

Give the reported value of pIC50 for this record: Cc1c(-c2ccccc2)nc2ccc(Br)cc2c1C(=O)NCC(O)(C(=O)O)c1ccccc1 (single isomer, unassigned; (+)) [Example 20]
7.01

Give the reported value of pIC50 for this record: Cc1c(-c2ccccc2)nc2ccc(Br)cc2c1C(=O)NCC(CCC(=O)O)c1c(F)c(F)cc(F)c1F (single isomer, unassigned; (-)) [Example 229]
8.57

Give the reported value of pIC50 for this record: Cc1c(-c2ccccc2)nc2ccc(Br)cc2c1C(=O)NCC(c1ccccc1Cl)N(C)CC(=O)O (single isomer, unassigned; (+)) [Example 189]
7.21

Give the reported value of pIC50 for this record: COc1c(F)cc(F)cc1C(C)(CNC(=O)c1c(C)c(-c2ccccc2)nc2ccc(Br)cc12)CC(=O)O (racemic) [Example 135]
7.89

Give the reported value of pIC50 for this record: Cc1c(-c2ccccc2)nc2ccc(Br)cc2c1C(=O)NCC(CCC(=O)O)c1ccccc1OC(F)F (single isomer, unassigned; (-)) [Example 179]
8.39

Give the reported value of pIC50 for this record: Cc1c(-c2ccccc2)nc2ccc(Br)cc2c1C(=O)NCC(C)(C(=O)O)c1ncccc1Cl (single isomer, unassigned) [Example 28]
7.00
